Assay: Cytotoxicity against human nasopharyngeal carcinoma cells
Assay type: functional
Conditions: Nasopharyngeal carcinoma cell, read-out: ED50 (the source's name)
The entries below are paired with their reported EC50.
Only the number, expressed in µg/mL, is required.

[[record]]
compound = "CCCCCCCCCC(=O)O[C@H]1[C@H](O[C@@H]2[C@H]3OC(=O)CCCCCCCCC[C@H](CCCCC)O[C@@H]4O[C@H](C)[C@H](O)[C@H](O)[C@H]4O[C@H](O[C@H]2C)[C@@H]3O)O[C@@H](C)[C@H](O[C@@H]2O[C@@H](C)[C@H](OC(=O)[C@@H](C)CC)[C@@H](O)[C@H]2O)[C@H]1O[C@@H]1O[C@@H](C)[C@H](O)[C@@H](O)[C@H]1O [STOLONIFERIN III]"
result_type = "EC50"
unit_string = "µg/mL"
reading = 5


Task item: Give the value of EC50 reported for the following: CCCCCCCCCCCC(=O)O[C@H]1[C@H](O[C@@H]2[C@H]3OC(=O)CCCCCCCCC[C@H](CCCCC)O[C@@H]4O[C@H](C)[C@H](O)[C@H](O)[C@H]4O[C@H](O[C@H]2C)[C@@H]3O)O[C@@H](C)[C@H](O[C@@H]2O[C@@H](C)[C@H](OC(=O)CCCCC)[C@@H](O)[C@H]2O)[C@H]1O[C@@H]1O[C@@H](C)[C@H](O)[C@@H](O)[C@H]1O [PESCAPREIN IV]
Reply: 5

Task item: Give the value of EC50 reported for the following: CCCCCCCCCCCC(=O)O[C@H]1[C@H](O[C@@H]2[C@@H](O)[C@@H](O)[C@H](O[C@H]3[C@H](O[C@@H](CCCCC)CCCCCCCCCC(=O)OC)O[C@H](C)[C@H](O)[C@@H]3O)O[C@H]2C)O[C@@H](C)[C@H](O[C@@H]2O[C@@H](C)[C@H](O)[C@@H](O)[C@H]2O)[C@H]1O[C@@H]1O[C@@H](C)[C@H](O)[C@@H](O)[C@H]1O [PESCAPROSIDE A]
Reply: 5
